endpoint-name: melting point (°C)

Example entries begin here.
O=c1[nH]c2ccccc2n1Cc1ccccc1 [Example 11]	194
CS/C=C(/C)n1c(=O)n(C)c2cc(F)ccc21 [Example 10]	110
CS/C=C(/C)n1c(=O)n(Cc2cc(C(F)(F)F)cc(C(F)(F)F)c2)c2ccccc21 [Example 6]	148

(I) CS/C=C(/C)n1c(=O)n(C)c2ccc(C(F)(F)F)cc21 [Example 9]
(II) CCn1c(=O)n(/C(C)=C\SC)c2ccccc21 [Example 5]
Endpoint returns whichever of I and II has the numerically higher melting point. The response must carry the label of the picked entry.
I
